# Tested on: CCRIS mutagenicity, Ames/micronucleus/aberration tests
# assayNotes: CCRIS mutagenicity studies
# conditionContext: Test System: AMES SALMONELLA TYPHIMURIUM; Strain/Indicator: TA1535; Metabolic Activation: NONE; Method: PREINCUBATION
Calls of active or inactive are those of the source. How the calls were made is not given here.
Classes to choose from: 1 (yes) = active, 0 (no) = inactive

Lookup: Check the results log: what was the call for `CS(C)=O` ?
Found: 0 (no)

Lookup: Check the results log: what was the call for `C=C(Cl)CCl` ?
Found: 1 (yes)

Lookup: Check the results log: what was the call for CC(O)CBr (centres undefined) ?
Found: 1 (yes)

Lookup: Check the results log: what was the call for `Nc1ccc2cc3ccccc3nc2c1` ?
Found: 0 (no)

Lookup: Check the results log: what was the call for `O=c1n(Cl)c(=O)n(Cl)c(=O)n1Cl` ?
Found: 0 (no)

Lookup: Check the results log: what was the call for `C=CC(=C)C` ?
Found: 0 (no)

Lookup: Check the results log: what was the call for `Nc1cc(S(=O)(=O)O)c2cccc(S(=O)(=O)O)c2c1` ?
Found: 0 (no)

Lookup: Check the results log: what was the call for `C1CC[C@H]2O[C@H]2C1` ?
Found: 1 (yes)

Lookup: Check the results log: what was the call for `Nc1ccc(S(=O)(=O)O)cc1` ?
Found: 0 (no)

Lookup: Check the results log: what was the call for `O=C(O)CNCP(=O)(O)O` ?
Found: 0 (no)

Lookup: Check the results log: what was the call for `Cc1ccc(C)cc1` ?
Found: 0 (no)

Lookup: Check the results log: what was the call for CCCCCCCCC/C=C/CC1CC(=O)OC1=O (centres undefined) ?
Found: 0 (no)

Lookup: Check the results log: what was the call for `COC(=O)Nc1nc2ccccc2[nH]1` ?
Found: 0 (no)

Lookup: Check the results log: what was the call for `c1ccc2[nH]cnc2c1` ?
Found: 0 (no)

Lookup: Check the results log: what was the call for `O=CC(Cl)(Cl)Cl` ?
Found: 0 (no)

Lookup: Check the results log: what was the call for `Cc1ccc(S(=O)(=O)NC(=O)NN2CCCCCC2)cc1` ?
Found: 0 (no)

Lookup: Check the results log: what was the call for `C1N2CN3CN1CN(C2)C3` ?
Found: 0 (no)

Lookup: Check the results log: what was the call for C(CCOCC1CO1)COCC1CO1 (centres undefined) ?
Found: 1 (yes)

Lookup: Check the results log: what was the call for `Sc1ccccc1` ?
Found: 0 (no)

Lookup: Check the results log: what was the call for CCOC(=O)CC(SP(=O)(OC)OC)C(=O)OCC (centres undefined) ?
Found: 0 (no)

Lookup: Check the results log: what was the call for `Cc1ccc(OP(=O)(Oc2ccc(C)cc2C)Oc2ccc(C)cc2C)c(C)c1` ?
Found: 0 (no)

Lookup: Check the results log: what was the call for `CC=C(C)C#N` ?
Found: 0 (no)

Lookup: Check the results log: what was the call for `C[Si](C)(C)Cl` ?
Found: 0 (no)

Lookup: Check the results log: what was the call for COCC1CO1 (centres undefined) ?
Found: 1 (yes)

Lookup: Check the results log: what was the call for `Nc1ccc(C=O)cc1` ?
Found: 0 (no)

Lookup: Check the results log: what was the call for `CC/C(=C(/CC)c1ccc(O)cc1)c1ccc(O)cc1` ?
Found: 0 (no)

Lookup: Check the results log: what was the call for `OCCO` ?
Found: 0 (no)

Lookup: Check the results log: what was the call for `CC(C)CCCCCCCOC(=O)c1ccccc1C(=O)OCCCCCCCC(C)C` ?
Found: 0 (no)

Lookup: Check the results log: what was the call for CCSCCC(N)C(=O)O (centres undefined) ?
Found: 0 (no)

Lookup: Check the results log: what was the call for `Oc1ccc(Cl)c(Cl)c1` ?
Found: 0 (no)

Lookup: Check the results log: what was the call for CC(=O)O[C@]1(C(C)=O)CC[C@H]2[C@@H]3C4OC4(Cl)C4=CC(=O)[C@@H]5C[C@@H]5[C@]4(C)[C@H]3CC[C@@]21C (some centres undefined) ?
Found: 0 (no)

Lookup: Check the results log: what was the call for `N#CCCCCC#N` ?
Found: 0 (no)

Lookup: Check the results log: what was the call for `CN(C)C(=O)Nc1cccc(C(F)(F)F)c1` ?
Found: 0 (no)

Lookup: Check the results log: what was the call for `Oc1ccc(Nc2ccc3ccccc3c2)cc1` ?
Found: 0 (no)

Lookup: Check the results log: what was the call for `CC(C)OS(C)(=O)=O` ?
Found: 1 (yes)

Lookup: Check the results log: what was the call for `N#C/C=C/C#N` ?
Found: 0 (no)

Lookup: Check the results log: what was the call for CCNC(=O)Nc1ccc(OCC(O)CNC(C)(C)C)c(C(C)=O)c1 (centres undefined) ?
Found: 0 (no)

Lookup: Check the results log: what was the call for `CCCCCCC[CH2][Sn]1([CH2]CCCCCCC)[O]C(=O)C=CC(=O)[O]1` ?
Found: 0 (no)

Lookup: Check the results log: what was the call for `C=CCSSCCC` ?
Found: 0 (no)

Lookup: Check the results log: what was the call for `CC(=O)C(C)=O` ?
Found: 0 (no)

Lookup: Check the results log: what was the call for `[O-][Br+2]([O-])O` ?
Found: 0 (no)

Lookup: Check the results log: what was the call for `COc1ccc(N)cc1N` ?
Found: 0 (no)

Lookup: Check the results log: what was the call for `C1COCCO1` ?
Found: 0 (no)

Lookup: Check the results log: what was the call for `CO/N=C(\C(=O)N[C@@H]1C(=O)N2C(C(=O)OCOC(=O)C(C)(C)C)=C(/C=C\c3scnc3C)CS[C@H]12)c1csc(N)n1` ?
Found: 0 (no)

Lookup: Check the results log: what was the call for `C=C(C)C(=O)OC(C)C` ?
Found: 0 (no)

Lookup: Check the results log: what was the call for `Nc1ccccc1-c1ccccc1` ?
Found: 0 (no)

Lookup: Check the results log: what was the call for `OCCBr` ?
Found: 1 (yes)

Lookup: Check the results log: what was the call for `COc1ccc(C(=O)c2ccccc2O)c(O)c1` ?
Found: 0 (no)

Lookup: Check the results log: what was the call for CCC1CO1 (centres undefined) ?
Found: 1 (yes)

Lookup: Check the results log: what was the call for `CC(C)Oc1ccc(Nc2ccccc2)cc1` ?
Found: 0 (no)

Lookup: Check the results log: what was the call for `CC(C)CO` ?
Found: 0 (no)

Lookup: Check the results log: what was the call for `[O]=[Zr]` ?
Found: 0 (no)

Lookup: Check the results log: what was the call for `CC/C(C)=N\O` ?
Found: 0 (no)

Lookup: Check the results log: what was the call for `NC=O` ?
Found: 0 (no)

Lookup: Check the results log: what was the call for `CNC(=O)C[C@@H](N)C(=O)N[C@@H](C(=O)N[C@@H]1C(=O)N2[C@@H]1SC(C)(C)[C@@H]2C(=O)O)c1ccc(O)cc1` ?
Found: 0 (no)

Lookup: Check the results log: what was the call for C=C(C)C(=O)OCC(Br)CBr (centres undefined) ?
Found: 0 (no)

Lookup: Check the results log: what was the call for `C=CCOC(=O)CC(C)C` ?
Found: 0 (no)

Lookup: Check the results log: what was the call for CCCCC(CC)COCCC#N (centres undefined) ?
Found: 0 (no)

Lookup: Check the results log: what was the call for `CC(C)=CCC/C(C)=C/C=O` ?
Found: 0 (no)

Lookup: Check the results log: what was the call for `CCCCN(CCCC)N=O` ?
Found: 0 (no)

Lookup: Check the results log: what was the call for CC(CN1c2ccccc2Sc2ccccc21)N(C)C (centres undefined) ?
Found: 0 (no)

Lookup: Check the results log: what was the call for `CC(C)(C)OOC(=O)c1ccccc1` ?
Found: 0 (no)

Lookup: Check the results log: what was the call for `O=C/C=C/C=C/C=O` ?
Found: 0 (no)

Lookup: Check the results log: what was the call for `O=NN1CCOCC1` ?
Found: 0 (no)

----------
# Test system: CCRIS mutagenicity, Ames/micronucleus/aberration tests
# assayNotes: CCRIS mutagenicity studies
# conditionContext: Test System: AMES SALMONELLA TYPHIMURIUM; Strain/Indicator: TA98; Metabolic Activation: HAMSTER, LIVER, S-9, AROCLOR 1254 (30%); Method: PREINCUBATION
The source made the active and inactive calls. No rule for the calls is given here.
Classes to choose from: active, inactive

Lookup: Check the results log: what was the call for `c1ccc2cc3c(cc2c1)-c1cccc2cccc-3c12` ?
Found: active

Lookup: Check the results log: what was the call for `CN(C)CCO` ?
Found: inactive

Lookup: Check the results log: what was the call for `O=C1c2ccccc2C(=O)C1c1ccc2ccccc2n1` ?
Found: inactive

Lookup: Check the results log: what was the call for `Cl/C=C\Cl` ?
Found: inactive

----------
# Test system: CCRIS mutagenicity, Ames/micronucleus/aberration tests
# assayNotes: CCRIS mutagenicity studies
# conditionContext: Test System: E.COLI; Strain/Indicator: WP2UVRA; Metabolic Activation: RAT LIVER S-9, PHENOBARBITAL AND BETA-NAPHTHOFLAVONE; Method: PREINCUBATION
# Excerpt: The CCRIS database contains chemical records with carcinogenicity, mutagenicity, tumor promotion, and tumor inhibition test results. It was developed by the National Cancer Institute (NCI). Data are derived from studies cited in primary journals, current awareness tools, NCI reports, and other sources. Test results have been reviewed by experts in carcinogenesis and mutagenesis. CCRIS provides historical information from the years 1985 - 2011. It is no longer updated. […]
Activity calls are given as the source filed them. The rule behind the calls is not given here.
measuredProperty: mutagenic call

So, `CCN1CCNC(=O)C1=O` ? Its mutagenic call was inactive; negative

So, `O=C(S)c1ccccc1` ? Its mutagenic call was inactive; negative

So, `CC=O` ? Its mutagenic call was inactive; negative

So, `BrCCCCBr` ? Its mutagenic call was active; positive

So, `NCCO` ? Its mutagenic call was inactive; negative

So, `Nc1ccc(Oc2ccc(N)cc2)cc1` ? Its mutagenic call was inactive; negative

So, `Nc1ccc(C=O)cc1` ? Its mutagenic call was inactive; negative

So, `Sc1ccccc1` ? Its mutagenic call was inactive; negative

---
So, `OCCO` ? Its mutagenic call was inactive; negative

So, `Nc1cc(S(=O)(=O)O)c2cccc(S(=O)(=O)O)c2c1` ? Its mutagenic call was inactive; negative

So, `[Cl][Mn][Cl]` ? Its mutagenic call was inactive; negative

So, c1ccc(C2CO2)cc1 (centres undefined) ? Its mutagenic call was active; positive

So, `CNN` ? Its mutagenic call was active; positive

So, `O.O.O.O.O.O.[Cl-].[Cl-].[Ni+2]` ? Its mutagenic call was inactive; negative
